assayedTarget: 5-HT1A (Homo sapiens)
Sequence (P08908 whole entry): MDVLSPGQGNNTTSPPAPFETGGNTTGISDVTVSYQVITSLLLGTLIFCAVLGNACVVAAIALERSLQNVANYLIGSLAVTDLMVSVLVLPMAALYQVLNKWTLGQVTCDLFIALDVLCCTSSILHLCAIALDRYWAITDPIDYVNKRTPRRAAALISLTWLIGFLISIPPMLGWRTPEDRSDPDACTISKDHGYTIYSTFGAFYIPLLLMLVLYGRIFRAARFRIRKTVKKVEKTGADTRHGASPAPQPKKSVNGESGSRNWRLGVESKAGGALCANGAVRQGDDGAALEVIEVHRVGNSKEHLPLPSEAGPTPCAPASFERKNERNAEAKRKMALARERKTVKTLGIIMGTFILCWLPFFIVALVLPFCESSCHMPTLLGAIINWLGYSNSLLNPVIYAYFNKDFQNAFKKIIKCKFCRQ
testDescription: BRET signaling assay: 5-HT1A-mediated activation of heterotrimeric Gi1 (TRUPATH, HEK293-T)
experimentalContext: EC50 (nM)
endpointName: EC50

Record request: EC50 value, item COc1ccc2[nH]cc(CCN(C)C)c2c1F
1.77 nM

Each recorded value in this set is attributed to patent US20260034119A1.
